tgt: T1, TIAR RRM12S (UniProt Q01085 8-175)
T1 sequence: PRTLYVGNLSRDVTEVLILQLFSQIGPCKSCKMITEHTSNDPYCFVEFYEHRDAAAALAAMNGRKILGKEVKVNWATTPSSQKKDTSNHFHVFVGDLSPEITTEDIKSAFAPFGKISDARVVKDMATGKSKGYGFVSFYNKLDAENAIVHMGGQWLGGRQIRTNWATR
protocol-summary: SPR
metric-name: Kd (nM)

INSERT INTO measurements (binder, observed_value) VALUES
  ('TTTTTTTTTTTTTTTTTTTT (ssDNA) [T-rich DNA]', 314);
